// data source = the supplement of paper PMC6757056

B1: library; a variant is named by its letters at N, in order (parent)
chain: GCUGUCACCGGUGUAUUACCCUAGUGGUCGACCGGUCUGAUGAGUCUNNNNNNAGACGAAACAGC

variants of: B1; assay: normalized RNA/DNA level with ligand (relative to sTRSVctl = 100) (log10 (% of sTRSVctl)); ligand: hypoxanthine (xanthine aptamer); higher = less ribozyme self-cleavage, higher mRNA level; conditions: ligand concentration (+) RNA-Seq: 5 mM, HEK293T, reporter: mCherry (pCS4076), ligand present: yes
ATTRIBUTE MEASURED: normalized RNA/DNA level with ligand (log10)
Give the figure by itself; no unit, no explanation.

Worked examples follow.
CCGACA ... 1.98
GGACGG ... 1.81
UCCGAC ... 1.95
GUAAAA ... 1.92
GAGACU ... 1.96

Exercise: Identify normalized RNA/DNA level with ligand (log10) associated with the variant GGUAGC
Key: 1.86

Exercise: Identify normalized RNA/DNA level with ligand (log10) associated with the variant AUAGGG
Key: 1.81

Exercise: Identify normalized RNA/DNA level with ligand (log10) associated with the variant UGCUAA
Key: 1.92

Exercise: Identify normalized RNA/DNA level with ligand (log10) associated with the variant UGUAAU
Key: 1.91

Exercise: Identify normalized RNA/DNA level with ligand (log10) associated with the variant UGCAGU
Key: 1.91

Exercise: Identify normalized RNA/DNA level with ligand (log10) associated with the variant CUUUGA
Key: 1.97

Exercise: Identify normalized RNA/DNA level with ligand (log10) associated with the variant CGCCAG
Key: 1.99

Exercise: Identify normalized RNA/DNA level with ligand (log10) associated with the variant GUACCA
Key: 1.94

Exercise: Identify normalized RNA/DNA level with ligand (log10) associated with the variant AGAGUC
Key: 1.94

Exercise: Identify normalized RNA/DNA level with ligand (log10) associated with the variant GAUUCA
Key: 1.96

Exercise: Identify normalized RNA/DNA level with ligand (log10) associated with the variant AGAUAA
Key: 1.88

Exercise: Identify normalized RNA/DNA level with ligand (log10) associated with the variant GGUCGG
Key: 1.87

Exercise: Identify normalized RNA/DNA level with ligand (log10) associated with the variant CCCCAG
Key: 1.84

Exercise: Identify normalized RNA/DNA level with ligand (log10) associated with the variant CGGACU
Key: 1.95

Exercise: Identify normalized RNA/DNA level with ligand (log10) associated with the variant UUCAAG
Key: 1.91

Exercise: Identify normalized RNA/DNA level with ligand (log10) associated with the variant CCUAGC
Key: 1.91

Exercise: Identify normalized RNA/DNA level with ligand (log10) associated with the variant AGUCAC
Key: 1.94
